Data origin, for the record: ChEMBL document CHEMBL1201862

Notes on GI50 obtained with HCT-15.

These solved cases illustrate the format of a correct answer.
1) NS(=O)(=O)c1ccc(NC(=O)c2cccc3c(=O)c4ccccc4[nH]c23)cc1 ... > 100 µM
2) COc1cccc2cc(C)c(C(=O)c3ccccc3)nc12 ... > 100 µM
3) COc1cc2c(cc1OC)C(=O)/C(=C/c1ccc(N(C)C)cc1)CC2 ... > 10 µM
4) CCOC(=O)C1(C#N)C(C#N)(C#N)C1(C#N)C#N ... > 100 µM
5) c1cnc2nc3n(c2c1)CSC3 ... > 100 µM

Please provide the recorded GI50 for COc1nc2c(c(=O)[nH]1)N=C(c1ccc(Cl)cc1)CC(c1ccccc1)N2 (stereo not given) , tested on HCT-15.
24.2 µM

Please provide the recorded GI50 for `CCn1c(=O)c2c3cc(OC(C)=O)ccc3oc2c2ccc(OC(C)=O)cc21` , tested on HCT-15.
39.1 µM

Please provide the recorded GI50 for O=C(CCN1CCN2c3ccccc3CCC2C1)c1ccc(F)cc1 (stereo not given) , tested on HCT-15.
20.8 µM

Please provide the recorded GI50 for `NS(=O)(=O)c1nnc(NC(=O)C23CC4CC(CC(C4)C2)C3)s1` , tested on HCT-15.
> 100 µM

Please provide the recorded GI50 for CCOC(=O)Cc1csc(NC(NC(=O)OCC)(C(=O)OCC)C(F)(F)F)n1 (stereo not given) , tested on HCT-15.
> 100 µM

Please provide the recorded GI50 for C/C1=C\C=C(\C(C)C)CC/C(C(=O)O)=C\CC/C(C)=C/CC1 [NEOCROTOCEMBRANEIC ACID] , tested on HCT-15.
21.4 µM

Please provide the recorded GI50 for OC(C#CCN1CCCC1)(c1ccccc1)c1ccccc1Cl (stereo not given) , tested on HCT-15.
68.5 µM

Please provide the recorded GI50 for CN1CN(C2OC(CO)C(O)C2O)c2nc(N)[nH]c(=O)c21 (stereo not given) , tested on HCT-15.
> 100 µM

Please provide the recorded GI50 for `COCN1COCN(C)C1=O` , tested on HCT-15.
> 100 µM

Please provide the recorded GI50 for `CCC[C@H](O)[C@@H](CNc1cc(NC(C)=O)nc(NC(C)=O)n1)N(Cc1ccccc1)Cc1ccccc1` , tested on HCT-15.
31.7 µM

Please provide the recorded GI50 for `C/C(CN1C(=O)c2ccccc2C1=O)=N\NS(=O)(=O)c1ccc(Cl)cc1` , tested on HCT-15.
> 100 µM

Please provide the recorded GI50 for `Cc1ccc(/C(=C\C(=O)C(=O)NC23CC4CC(CC(C4)C2)C3)Sc2ccccc2)cc1` , tested on HCT-15.
> 10 µM

Please provide the recorded GI50 for `CC(C)NC(=O)N(Nc1ccccc1)C(C)(C)C` , tested on HCT-15.
> 100 µM

Please provide the recorded GI50 for `Cc1ccc(C(=O)N/N=C2/C(=O)c3c4ccccc4cc4cccc2c34)cc1` , tested on HCT-15.
20.6 µM

Please provide the recorded GI50 for `COc1ccc2oc(=N)c(C(=O)Nc3ccccn3)cc2c1` , tested on HCT-15.
> 100 µM

* * *

Test system: OVCAR-5
Assay: NCI tumour cell line growth inhibition, 48 h
Calls of active or inactive are those of the source. No stated cut-off is given here; in the data, active = GI50 up to about 1.1 µM and inactive = higher.
Field 'call' accepts active, inactive

1) Clc1ccccc1C(Nc1ncccn1)Nc1ncccn1 ... inactive
2) O=[N+]([O-])c1nccn1COCCI ... inactive
3) NS(=O)(=O)c1ccc(NC(=O)c2cccc3c(=O)c4ccccc4[nH]c23)cc1 ... inactive
4) OCc1ccc2c(c1)CC1(Cc3ccc(/C=N/O)cc3C1)C2 (stereo unspecified) ... inactive
5) COc1ccc(CSC2=C(C#N)C(=O)NC3(CCCCC3)S2)cc1 ... inactive

Query: recorded result category for CCN1CCC(O)(c2ccc(Oc3ccc(C)cc3)cc2)C(C(=O)c2ccc(Oc3ccc(C)cc3)cc2)C1 (stereo unspecified) in this test
inactive

Query: recorded result category for `CCOC(=O)Cc1[nH]c(C(=O)c2ccccc2)cc1C(=O)c1ccccc1` in this test
inactive

Query: recorded result category for CCCCC1CCCCCCc2[nH]c(/C=C3\N=C(c4ccc[nH]4)C=C3OC)cc21 (stereo unspecified) in this test
active

Query: recorded result category for COC(=O)c1c2c(cc3c1CC1(Cc4cc5c(c(C=O)c4C1)CCC5)C3)CCC2 (stereo unspecified) in this test
inactive
